# Experimental system: human TRPA1 channel (Homo sapiens (Human))
# Method notes: hTRPA1 CHO Ca2+ FLIPR Tetra assay: block of cinnamaldehyde induced calcium influx
# Format: cell-based
# Cond: hTRPA1 IC50 90 min, CHO cells expressing TRPA1; 90 minutes incubation with compound before cinnamaldehyde (about EC80); Hill coefficient fixed to 1.5
Measurement type: pIC50
Note on units: pIC50 is unitless, being -log10 of a concentration expressed in mol/L.

Task: Form field: reported pIC50 of Cc1nc(Br)n2ncn(Cc3nc([C@@H]4CO[C@@H](c5ccc(Cl)cc5)C4)no3)c(=O)c12 (racemic)
Output: 9.52

Task: Form field: reported pIC50 of Cn1cnc2nc(N)n(Cc3nc([C@@H]4CO[C@@H](c5ccc(F)cc5)C4)no3)c2c1=O (racemic)
Output: 7.06

Task: Form field: reported pIC50 of Cc1nc(N(C)C)n2ncn(Cc3nc([C@@H]4CO[C@@H](c5ccc(Cl)cc5)C4)no3)c(=O)c12 (racemic)
Output: 7.23

###

Recorded IC50 for the following compounds
# Experimental system: human TRPA1 channel (Homo sapiens (Human), UniProt O75762)
# Sequence (O75762 whole entry): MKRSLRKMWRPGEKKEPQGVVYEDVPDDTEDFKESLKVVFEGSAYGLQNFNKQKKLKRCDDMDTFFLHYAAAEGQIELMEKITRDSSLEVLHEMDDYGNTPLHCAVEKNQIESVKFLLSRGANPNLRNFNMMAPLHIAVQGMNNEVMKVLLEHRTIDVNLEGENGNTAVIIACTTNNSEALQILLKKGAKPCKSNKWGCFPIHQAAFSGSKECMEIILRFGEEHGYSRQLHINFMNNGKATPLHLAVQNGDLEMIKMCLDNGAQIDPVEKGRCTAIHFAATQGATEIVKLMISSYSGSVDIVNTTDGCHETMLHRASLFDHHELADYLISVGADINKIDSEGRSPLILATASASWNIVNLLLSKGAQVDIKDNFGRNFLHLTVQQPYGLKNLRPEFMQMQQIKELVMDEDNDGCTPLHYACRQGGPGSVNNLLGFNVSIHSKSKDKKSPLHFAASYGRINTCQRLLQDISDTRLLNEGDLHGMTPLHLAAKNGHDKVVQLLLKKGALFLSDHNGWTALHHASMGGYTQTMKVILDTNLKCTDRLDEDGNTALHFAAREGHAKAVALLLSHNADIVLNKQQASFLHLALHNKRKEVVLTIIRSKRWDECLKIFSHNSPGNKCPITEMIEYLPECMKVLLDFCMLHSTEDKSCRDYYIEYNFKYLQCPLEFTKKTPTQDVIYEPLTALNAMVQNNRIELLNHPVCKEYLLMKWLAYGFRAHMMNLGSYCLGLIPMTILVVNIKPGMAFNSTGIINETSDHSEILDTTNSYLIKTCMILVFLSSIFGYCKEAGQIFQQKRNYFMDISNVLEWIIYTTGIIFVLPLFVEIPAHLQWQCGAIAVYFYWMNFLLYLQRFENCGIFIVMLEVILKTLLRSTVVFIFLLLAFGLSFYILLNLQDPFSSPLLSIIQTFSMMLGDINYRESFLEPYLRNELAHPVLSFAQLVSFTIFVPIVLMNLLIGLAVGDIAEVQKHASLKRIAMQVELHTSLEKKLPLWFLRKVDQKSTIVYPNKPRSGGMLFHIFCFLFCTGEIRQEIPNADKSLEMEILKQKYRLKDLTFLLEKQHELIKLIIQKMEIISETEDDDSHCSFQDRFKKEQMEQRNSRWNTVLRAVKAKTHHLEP
# Method notes: hTRPA1 CHO Ca2+ FLIPR Tetra assay: block of cinnamaldehyde induced calcium influx
# Type: cell-based
# Cond: read-out: hTRPA1 IC50 10 min; CHO cells expressing TRPA1; 10 minutes incubation with compound before cinnamaldehyde (about EC80); Hill coefficient fixed to 1.5
Just the number please, in nM, no unit attached.

• Cn1cnc2nc(N)n(Cc3nc([C@@H]4CO[C@@H](c5cccc(F)c5)C4)no3)c(=O)c21 [Example 125] = 40.5
• Nc1nc(=O)c2cccnc2n1Cc1nc([C@@H]2CO[C@@H](c3ccc(F)cc3)C2)no1 [Example 130] = 83.3
• Cn1cnc2ncn(Cc3nc([C@@H]4CO[C@@H](c5cc(F)c(F)c(F)c5)C4)no3)c(=O)c21 [Example 40] = 27.6
• Cc1ccnc2cnn(Cc3nc([C@@H]4CO[C@@H](c5ccc(F)cc5)C4)no3)c(=O)c12 [Example 104] = 7.2
• Nc1nc2ncn(Cc3nc([C@@H]4CO[C@@H](c5ccc(Cl)cc5)C4)no3)c(=O)c2s1 [Example 129] = 15.1

Task: Record O=c1c2cccnc2cnn1Cc1nc([C@@H]2CO[C@@H](c3ccc(F)cc3)C2)no1 [Example 11] : what is its IC50 with human TRPA1 channel (Homo sapiens (Human), UniProt O75762)?
Output: 16.6

Task: Record Nc1nc2cccnc2n1Cc1nc([C@@H]2CO[C@@H](c3ccc(Cl)cc3)C2)no1 [Example 155] : what is its IC50 with human TRPA1 channel (Homo sapiens (Human), UniProt O75762)?
Output: 10.3

Task: Record Cc1cnc(N)n(Cc2nc([C@@H]3CO[C@@H](c4ccc(Cl)cc4)C3)no2)c1=O [Example 128] : what is its IC50 with human TRPA1 channel (Homo sapiens (Human), UniProt O75762)?
Output: 146

Task: Record Cc1cnn2ncn(Cc3nc([C@@H]4CO[C@@H](c5ccc(C#N)cc5)C4)no3)c(=O)c12 [Example 122] : what is its IC50 with human TRPA1 channel (Homo sapiens (Human), UniProt O75762)?
Output: 75.8

Task: Record Cn1nncc1C(=O)NCc1nc([C@@H]2CO[C@@H](c3ccc(Cl)cc3)C2)no1 [Example 121] : what is its IC50 with human TRPA1 channel (Homo sapiens (Human), UniProt O75762)?
Output: 111
